Recorded values, source patent US20210276967A1.

EXPERIMENT: Mouse PK studies (plasma and liver exposure)
Format: in vivo, C57BL/6 mice
EXPERIMENTAL_CONTEXT: male, C57BL/6N, mouse, liver, po, 100 mg/kg, 8 Hours, PO 100 mpk in 0.5% methocell, Mean; read-out: Liver concentrations
Experimental: C57BL/6 mice are used to evaluate plasma and liver exposure and pharmacokinetic parameters after intravenous and oral administration (from 2 to 200 mpk according to the compound tested and the administration route). 12 (+3 spare) healthy C57BL/6N male mice are obtained from Charles River S.p.A. Calco (Como), Italy. Animals are ordered weighing 21 to 27 grams and approximately 7 weeks old. […] Actual conditions are recorded. […]
OUTCOME_MEASURE: concentration at 8 h (µM)

ENTRY_SMILES	OUTCOME_MEASURE	VALUE_MEASURED
Nc1ccc(C(=O)Nc2cc(F)c(F)c(F)c2)cc1S(N)(=O)=O	concentration at 8 h	129

* * *

EXPERIMENT: Mouse PK studies (plasma and liver exposure)
Format: in vivo, C57BL/6 mice
EXPERIMENTAL_CONTEXT: male, C57BL/6N, mouse, plasma, po, 100 mg/kg, plasma, PO 100 mg/kg in 0.5% methocell, mice, individual subject; read-out: Tmax

ENTRY_SMILES	Tmax (h)
Nc1ccc(C(=O)Nc2cc(F)c(F)c(F)c2)cc1S(N)(=O)=O	1

* * *

EXPERIMENT: Mouse PK studies (plasma and liver exposure)
Assay type: in vivo, C57BL/6 mice
EXPERIMENTAL_CONTEXT: male, C57BL/6N, mouse, liver; PO 150 mg/kg in 0.5% methocell, mice

COMPOUND	Kp
Cc1cc(N)c(S(N)(=O)=O)cc1C(=O)Nc1cc(F)c(F)c(F)c1 [Example E17]	13.8

* * *

EXPERIMENT: Mouse PK studies (plasma and liver exposure)
Assay type: in vivo, C57BL/6 mice
EXPERIMENTAL_CONTEXT: male, C57BL/6N, mouse, plasma, po, 100 mg/kg, 4 Hours, PO 100 mpk in 0.5% methocell, individual subject; read-out: Plasma concentrations
OUTCOME_MEASURE: concentration at 4 h (µM)

MOLECULE	VALUE_MEASURED
Nc1ccc(C(=O)Nc2cc(F)c(F)c(F)c2)cc1S(N)(=O)=O [Example E3]	10.9

* * *

EXPERIMENT: Mouse PK studies (plasma and liver exposure)
Assay type: in vivo, C57BL/6 mice
EXPERIMENTAL_CONTEXT: male, C57BL/6N, mouse, liver, po, 100 mg/kg, 8 Hours, PO 100 mpk in 0.5% methocell, individual subject; read-out: Liver concentrations

ENTRY_SMILES	UNIT_INFO	concentration at 8 h
Nc1ccc(C(=O)Nc2cc(F)c(F)c(F)c2)cc1S(N)(=O)=O	µM	143

* * *

EXPERIMENT: Mouse PK studies (plasma and liver exposure)
Assay type: in vivo, C57BL/6 mice
EXPERIMENTAL_CONTEXT: male, C57BL/6N, mouse, plasma, po, 100 mg/kg, 1 Hours, PO 100 mpk in 0.5% methocell, Mean; read-out: Plasma concentrations
OUTCOME_MEASURE: concentration at 1 h (µM)

ENTRY_SMILES	OUTCOME_MEASURE	VALUE_MEASURED
Nc1ccc(C(=O)Nc2cc(F)c(F)c(F)c2)cc1S(N)(=O)=O	concentration at 1 h	12

* * *

EXPERIMENT: Mouse PK studies (plasma and liver exposure)
Assay type: in vivo, C57BL/6 mice
EXPERIMENTAL_CONTEXT: male, C57BL/6N, mouse, liver, 100 mpk; 8 h after PO administration; read-out: liver levels higher than plasma (ratio liver/plasma concentration)
OUTCOME_MEASURE: Kp at 8 h

ENTRY_SMILES	VALUE_MEASURED
Nc1ccc(C(=O)Nc2cc(F)c(F)c(F)c2)cc1S(N)(=O)=O	13

* * *

EXPERIMENT: Mouse PK studies (plasma and liver exposure)
Format: in vivo, C57BL/6 mice
EXPERIMENTAL_CONTEXT: male, C57BL/6N, mouse, plasma, po, 100 mg/kg, plasma, PO 100 mg/kg in 0.5% methocell, mice, individual subject; read-out: AUC (0-24 h)

ENTRY_SMILES	AUC(0-t) (µM·h)
Nc1ccc(C(=O)Nc2cc(F)c(F)c(F)c2)cc1S(N)(=O)=O	171

* * *

EXPERIMENT: Mouse PK studies (plasma and liver exposure)
Format: in vivo, C57BL/6 mice
EXPERIMENTAL_CONTEXT: male, C57BL/6N, mouse, plasma, po, 100 mg/kg, 8 Hours, PO 100 mpk in 0.5% methocell, Mean; read-out: Plasma concentrations

COMPOUND	UNIT_INFO	concentration at 8 h
Nc1ccc(C(=O)Nc2cc(F)c(F)c(F)c2)cc1S(N)(=O)=O [Example E3]	µM	10

* * *

Test system: HBV
EXPERIMENT: HBV inhibition in HepAD38 cells, extracellular HBV DNA by direct qPCR
Type: cell-based, hepatitis B virus
EXPERIMENTAL_CONTEXT: Hepatitis B virus; 1 μM, HepAD38, 96 hours; read-out: HBV inhibition % (conc μM)

MOLECULE	inhibition at 1 µM
CNc1ccc(C(=O)Nc2cc(F)c(F)c(F)c2)cc1S(N)(=O)=O [Example E1]	< 50%
CC(C)(C)OC(=O)N[C@H]1CCC[C@H]1NS(=O)(=O)c1cc(C(=O)Nc2cc(F)c(F)c(F)c2)ccc1N	> 50%
Nc1cc(Br)c(C(=O)Nc2cc(F)c(F)c(F)c2)cc1S(N)(=O)=O	> 50%
CNS(=O)(=O)c1cc(C(=O)Nc2cc(F)c(F)c(F)c2)ccc1N [Example E2]	> 50%
CC(C)(C)OC(=O)N[C@@H]1CCC[C@@H]1NS(=O)(=O)c1cc(C(=O)Nc2cc(F)c(F)c(F)c2)ccc1N	> 50%

* * *

EXPERIMENT: Mouse PK studies (plasma and liver exposure)
Assay type: in vivo, C57BL/6 mice
EXPERIMENTAL_CONTEXT: male, C57BL/6N, mouse, plasma, po, 100 mg/kg, 0.5 Hours, PO 100 mpk in 0.5% methocell, Mean; read-out: Plasma concentrations

COMPOUND	concentration at 0.5 h [µM]
Nc1ccc(C(=O)Nc2cc(F)c(F)c(F)c2)cc1S(N)(=O)=O [Example E3]	9

* * *

System: HBV genotype E
EXPERIMENT: Antiviral activity in HepG2 cells transfected with HBV genotype E plasmid, extracellular HBV DNA qPCR
Type: cell-based
EXPERIMENTAL_CONTEXT: Hepatitis B virus, read-out: HBV inhibition EC50 (Mean ± StD)

MOLECULE	EC50 / nM
Cc1cc(N)c(S(N)(=O)=O)cc1C(=O)Nc1cc(F)c(F)c(F)c1 [Example E17]	51.2

* * *

EXPERIMENT: Mouse PK studies (plasma and liver exposure)
Type: in vivo, C57BL/6 mice
EXPERIMENTAL_CONTEXT: male, C57BL/6N, mouse, plasma, po, 100 mg/kg, 0.25 Hours, PO 100 mpk in 0.5% methocell, individual subject; read-out: Plasma concentrations

ENTRY_SMILES	concentration at 0.25 h / µM
Nc1ccc(C(=O)Nc2cc(F)c(F)c(F)c2)cc1S(N)(=O)=O	6.15

* * *

EXPERIMENT: Mouse PK studies (plasma and liver exposure)
Type: in vivo, C57BL/6 mice
EXPERIMENTAL_CONTEXT: male, C57BL/6N, mouse, plasma, po, 100 mg/kg, plasma, PO 100 mg/kg in 0.5% methocell, mice, Mean; read-out: Tmax
OUTCOME_MEASURE: Tmax (h)

ENTRY_SMILES	UNIT_INFO	VALUE_MEASURED
Nc1ccc(C(=O)Nc2cc(F)c(F)c(F)c2)cc1S(N)(=O)=O	h	1.7

* * *

EXPERIMENT: Mouse PK studies (plasma and liver exposure)
Type: in vivo, C57BL/6 mice
EXPERIMENTAL_CONTEXT: male, C57BL/6N, mouse, plasma, po, 100 mg/kg, 0.25 Hours, PO 100 mpk in 0.5% methocell, Mean; read-out: Plasma concentrations

ENTRY_SMILES	UNIT_INFO	concentration at 0.25 h
Nc1ccc(C(=O)Nc2cc(F)c(F)c(F)c2)cc1S(N)(=O)=O	µM	5

* * *

Tested on: HBV genotype D
EXPERIMENT: Antiviral activity in HepG2 cells transfected with HBV genotype D plasmid, extracellular HBV DNA qPCR
Type: cell-based
EXPERIMENTAL_CONTEXT: Hepatitis B virus, read-out: HBV inhibition EC50 (Mean ± StD)
pEC50: −log10 of the molar value.
OUTCOME_MEASURE: pEC50

ENTRY_SMILES	ASSAY_TARGET	OUTCOME_MEASURE	VALUE_MEASURED
Cc1cc(N)c(S(N)(=O)=O)cc1C(=O)Nc1cc(F)c(F)c(F)c1	HBV genotype D	pEC50	7.41

* * *

EXPERIMENT: Mouse PK studies (plasma and liver exposure)
Format: in vivo, C57BL/6 mice
EXPERIMENTAL_CONTEXT: male, C57BL/6N, mouse, plasma, po, 100 mg/kg, 24 Hours, PO 100 mpk in 0.5% methocell, Mean; read-out: Plasma concentrations

ENTRY_SMILES	concentration at 24 h
Nc1ccc(C(=O)Nc2cc(F)c(F)c(F)c2)cc1S(N)(=O)=O	200 nM
